# System: thymidylate synthase (TS) protein
# Procedure Text: Immunoblot analysis of TS protein (free and ITC-bound), Odyssey quantitation
# Assay type: cell-based, human
# Experimental Context: RKO cells, ssiRNA 1 nM, 48 hr; normalized to free TS protein in mock-transfected cells (LF2000) set to 100%; mean ± S.D., 6 experiments
[5FU] = 5-fluorouracil base, with d sugar it is 5-fluoro-2'-deoxyuridine (FdU); d = 2'-deoxy (DNA); r = 2'-OH (RNA)
Readout Label: ITC-Bound TS (%)
All answers are understood in %, so give the number only.

Exercise: Tell me the measured ITC-Bound TS (%) of TS6-3xF-dU/dA: ssiRNA with FdU replacing U at positions 10, 16 and 18 in the antisense strand; SEQ ID NO: 15 and 16 (chain 1 GGAUAUUGUCAGUCUUUAGGUUUUU; chain 2 CCUAAAGACUGACAAUAUCCAAAAA; FdU at antisense positions 10, 16, 18, chemistry not fully specified) , please.
Key: 26.2

Exercise: So what does the record say about ITC-Bound TS (%) for TS6-1xF-dU/dA: ssiRNA with a single FdU residue at the 4th position in the sense strand; SEQ ID NO: 5 and 6 (chain 1 GGAUAUUGUCAGUCUUUAGGUUUUU; chain 2 CCUAAAGACUGACAAUAUCCAAAAA; FdU at position 4 of sense strand, chemistry not fully specified) ?
Key: 4.4

Exercise: Value lookup for ITC-Bound TS (%); key = TS6-FdU/dA: TS-targeted ssiRNA, all 3′-end overhang dU of sense strand replaced with FdU (5 FdU); SEQ ID NO: 9 and 10 (chain 1 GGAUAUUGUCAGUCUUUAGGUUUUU; chain 2 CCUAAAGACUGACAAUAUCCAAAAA; chain 1: sugars from the 5' end r20 d5, [5FU] at 21, 22, 23, 24, 25, backbone not given here; chain 2: sugars from the 5' end r20 d5, backbone not given here)
Key: 22.0
